# Assay: Cytotoxicity in mock-infected HI-HeLa cells (antirhinoviral assay, XTT)
# Format: cell-based
# Experimental Context: human
Test Readout: CC50 at 2 days

## Input Give its CC50 at 2 days value. Item: CCOC(=O)c1ccc(OCCC2CCN(c3ccc(C)nn3)CC2)cc1 [Pirodavir, reference compound]
## Output > 10 µM

====

What CC50 was measured for each of the following?
# Test system: HI-HeLa cells
# Assay: Cytotoxicity in mock-infected HI-HeLa cells (antirhinoviral assay, XTT)
# Format: cell-based

## Input Recorded CC50 of CCOC(=O)/C=C/[C@H](CCC(N)=O)NC(=O)[C@H](Cc1ccccc1)NC(=O)[C@H](CC(C)C)NC(=O)c1ccccc1 , please.
## Output > 320 µM

## Input Would you mind telling me what CC50 value was observed for CCOC(=O)/C=C/[C@H](CCC(N)=O)NC(=O)[C@H](Cc1ccccc1)NC(=O)[C@H](CSCc1ccccc1)NC(=O)OCc1ccccc1 ?
## Output > 100 µM

## Input For COc1ccc(C(=O)/C=C/[C@H](CCC(N)=O)NC(=O)[C@H](Cc2ccccc2)NC(=O)[C@H](CC(C)C)NC(=O)OCc2ccccc2)cc1 , what is its reported CC50?
## Output 100 µM

## Input I am curious: what CC50 value has been reported for CCOC(=O)/C=C/[C@H](CCC(N)=O)NC(=O)[C@H](Cc1ccccc1)NC(=O)[C@H](CSc1ccccc1)NC(=O)SC1CCCC1 ?
## Output > 100 µM

## Input Requested field: CC50. Item: CC(C)C[C@H](NC(=O)OCc1ccccc1)C(=O)N[C@@H](Cc1ccccc1)C(=O)N[C@H](/C=C/C(=O)OC1CCCC1)CCC(N)=O
## Output > 100 µM

## Input Given CCCS(=O)(=O)N[C@@H](Cc1ccccc1)C(=O)N[C@H](/C=C/C(=O)OCC)CCC(N)=O , state its recorded CC50.
## Output > 100 µM

====

# Target Under Test: Recombinant Rhinovirus 3C protease (RVP) serotype-14 (Human rhinovirus 14, UniProt P03303)
# Construct: Recombinant Rhinovirus 3C proteases from serotypes 14, 16, 2 or 89; made in house
# Sequence (P03303 1538-1719): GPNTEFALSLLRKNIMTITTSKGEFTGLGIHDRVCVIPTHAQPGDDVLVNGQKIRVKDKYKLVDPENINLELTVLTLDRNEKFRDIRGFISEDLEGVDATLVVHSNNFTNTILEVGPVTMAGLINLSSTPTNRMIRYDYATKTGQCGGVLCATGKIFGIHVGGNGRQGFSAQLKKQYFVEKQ
# Assay: Inhibition of Rhinovirus Protease (fluorescence resonance energy transfer assay), serotype 14
# Format: biochemical, human rhinovirus (HRV)
# Experimental Context: RVP serotype-14; 10 minute preincubation, substrate start; read-out: INHIB (Ki)
Test Readout: Ki (µM)
Your answer is read as µM, so omit the unit and give the number.

## Input Which measured Ki value corresponds to CCOC(=O)/C=C/[C@H](CCC(N)=O)NC(=O)[C@H](Cc1ccc(F)cc1)NC(=O)c1cc2c(OC)cccc2[nH]1 [Compound 27] ?
## Output 20

## Input Given CCNC(=O)/C=C/[C@H](CCC(N)=O)NC(=O)[C@H](Cc1ccccc1)NC(=O)[C@H](CC(C)C)NC(=O)OCc1ccccc1 [Compound 6] , state its recorded Ki.
## Output 32

## Input Need Ki of CCOC(=O)/C=C/[C@H](CCC(N)=O)NC(=O)[C@H](Cc1ccc(F)cc1)NC(=O)[C@H](CC(C)C)NC(=O)OCc1ccccc1 [Compound 35] , thanks.
## Output 16.5

====

Kindly supply the reported kobs/I values for the records listed here.
# Target Under Test: Recombinant Rhinovirus 3C protease (RVP) serotype-14 (Human rhinovirus 14, UniProt P03303)
# Construct: Recombinant Rhinovirus 3C proteases from serotypes 14, 16, 2 or 89; made in house
# Assay: Inhibition of Rhinovirus Protease (fluorescence resonance energy transfer assay), serotype 14
# Type: biochemical, human rhinovirus (HRV)
# Experimental Context: RVP serotype-14; progress curves in enzyme start experiments

## Input Form: Entry = CCOC(=O)/C=C/[C@H](CCC(N)=O)NC(=O)[C@H](CC)NC(=O)[C@H](CC(C)C)NC(=O)OCc1ccccc1 [Compound 108] | System = Recombinant Rhinovirus 3C protease (RVP) serotype-14 (Human rhinovirus 14, UniProt P03303) | kobs/I = ____
## Output 4,694 M-1 sec-1

## Input So what kobs/I did CCOC(=O)/C=C/[C@H](CCC(N)=O)NC(=O)[C@H](Cc1ccccc1)NC(=O)OCc1ccccc1 [Compound 30, Ethyl-3-(CBZ-L-Phe-L-Gln)-E-Propenoate] get with Recombinant Rhinovirus 3C protease (RVP) serotype-14 (Human rhinovirus 14, UniProt P03303)?
## Output 430 M⁻¹ s⁻¹

## Input Report kobs/I for CC(C)CC(NC(=O)OCc1ccccc1)C(=O)NC(Cc1ccccc1)C(=O)NC(C=CC(=O)N1CCC(O)C1)CCC(N)=O (stereo not drawn) [Compound 39] tested on Recombinant Rhinovirus 3C protease (RVP) serotype-14 (Human rhinovirus 14, UniProt P03303).
## Output 1,200 M-1 sec-1

## Input # get_value(readout= kobs/I, system= Recombinant Rhinovirus 3C protease (RVP) serotype-14 (Human rhinovirus 14, UniProt P03303)) for CCOC(=O)/C=C/[C@H](CCC(N)=O)NC(=O)[C@H](Cc1ccccc1)NC(=O)[C@H](C[S+]([O-])Cc1ccccc1)NC(=O)OCc1ccccc1 (stereo partly drawn) [Compound 166]
## Output 40,900 M-1 sec-1

## Input Hello, I am looking for reported kobs/I with Recombinant Rhinovirus 3C protease (RVP) serotype-14 (Human rhinovirus 14, UniProt P03303) for CCN(CC)c1ccc(C(=O)/C=C/[C@H](CCC(N)=O)NC(=O)[C@H](Cc2ccccc2)NC(=O)[C@H](CC(C)C)NC(=O)OCc2ccccc2)cc1 [Compound 43] . Could you help?
## Output 4,500 M-1 sec-1

## Input Give kobs/I (Recombinant Rhinovirus 3C protease (RVP) serotype-14 (Human rhinovirus 14, UniProt P03303)) of the following compound: CC(C)C[C@H](NC(=O)OCc1ccccc1)C(=O)N[C@@H](Cc1ccccc1)C(=O)N[C@H](/C=C/C(=O)N1CC=CC1)CCC(N)=O [Compound 41]
## Output 8,464 M-1 sec-1

## Input Query for Recombinant Rhinovirus 3C protease (RVP) serotype-14 (Human rhinovirus 14, UniProt P03303): what kobs/I does the record show for CCOC(=O)/C=C/[C@H](CCC(N)=O)NC(=O)[C@H](Cc1ccc(C)cc1)NC(=O)[C@@H](NC(=O)OC1CCCC1)C(C)(C)C [Compound 190] ?
## Output 29,230 M-1 sec-1

## Input Lab request: please report kobs/I under test system Recombinant Rhinovirus 3C protease (RVP) serotype-14 (Human rhinovirus 14, UniProt P03303) for CCC[C@H](NC(=O)[C@H](CC(C)C)NC(=O)OCc1ccccc1)C(=O)N[C@H](/C=C/C(=O)OCC)CCC(N)=O [Compound 137]
## Output 2,344 M-1 sec-1

## Input Could you share what kobs/I was measured for CC(C)C[C@H](NC(=O)OCc1ccccc1)C(=O)N[C@@H](Cc1ccccc1)C(=O)N[C@H](/C=C/C(=O)c1ccccc1)CCC(N)=O [Compound 24] , tested on Recombinant Rhinovirus 3C protease (RVP) serotype-14 (Human rhinovirus 14, UniProt P03303)?
## Output 500,000 M-1 sec-1

## Input Item CCOC(=O)/C=C/[C@H](CCC(N)=O)NC(=O)[C@H](Cc1ccccc1)NS(=O)(=O)Cc1ccccc1 [Compound 32] with Recombinant Rhinovirus 3C protease (RVP) serotype-14 (Human rhinovirus 14, UniProt P03303) - kobs/I?
## Output 280 M⁻¹ s⁻¹

## Input Form field - read-out: kobs/I; system: Recombinant Rhinovirus 3C protease (RVP) serotype-14 (Human rhinovirus 14, UniProt P03303); submitted item: CCOC(=O)/C=C/[C@H](CCC(N)=O)NC(=O)[C@H](Cc1ccc(OP(=O)(O)O)cc1)NC(=O)[C@H](CC(C)C)NC(=O)OCc1ccccc1 [Compound 105]
## Output 1,200 M-1 sec-1

## Input Recorded kobs/I for CCOC(=O)/C=C/[C@H](CCC(N)=O)NC(=O)[C@H](Cc1ccc(CCO)cc1)NC(=O)[C@H](CC(C)C)NC(=O)OCc1ccccc1 [Compound 139] with Recombinant Rhinovirus 3C protease (RVP) serotype-14 (Human rhinovirus 14, UniProt P03303), please?
## Output 43,140 M-1 sec-1

## Input For Recombinant Rhinovirus 3C protease (RVP) serotype-14 (Human rhinovirus 14, UniProt P03303), provide kobs/I of CCOC(=O)/C=C/[C@H](CCC(N)=O)NC(=O)[C@H](Cc1ccc(Cl)cc1)NC(=O)c1cc2c(OC)cccc2[nH]1 [Compound 26] please.
## Output 5,400 M-1 sec-1

## Input Write down the reported kobs/I of CCOC(=O)/C=C/[C@H](CCC(N)=O)NC(=O)[C@H](Cc1ccc(OC)cc1)NC(=O)[C@H](CC(C)C)NC(=O)OCc1ccccc1 [Compound 103] , test system: Recombinant Rhinovirus 3C protease (RVP) serotype-14 (Human rhinovirus 14, UniProt P03303).
## Output 29,200 M-1 sec-1

## Input Provide value of kobs/I for this record tested with Recombinant Rhinovirus 3C protease (RVP) serotype-14 (Human rhinovirus 14, UniProt P03303): CCOC(=O)/C=C/[C@H](CCC(N)=O)NC(=O)[C@H](Cc1ccc(COC)cc1)NC(=O)[C@H](CC(C)C)NC(=O)OCc1ccccc1 [Compound 140]
## Output 7,122 M-1 sec-1

## Input Query kobs/I on Recombinant Rhinovirus 3C protease (RVP) serotype-14 (Human rhinovirus 14, UniProt P03303) for CC(C)C[C@H](NC(=O)OCc1ccccc1)C(=O)N[C@@H](Cc1ccccc1)C(=O)N[C@H](/C=C/C(=O)C(C)(C)C)CCC(N)=O [Compound 52]
## Output 15,000 M-1 sec-1

## Input // map CC(C)C[C@H](NC(=O)OCc1ccccc1)C(=O)N[C@@H](Cc1ccccc1)C(=O)N[C@H](/C=C/C(=O)OC1CCCC1)CCC(N)=O [Compound 18] to recorded kobs/I (system: Recombinant Rhinovirus 3C protease (RVP) serotype-14 (Human rhinovirus 14, UniProt P03303))
## Output 7,700 M-1 sec-1

## Input Request: kobs/I, test system Recombinant Rhinovirus 3C protease (RVP) serotype-14 (Human rhinovirus 14, UniProt P03303), entry CCOC(=O)/C(C)=C/[C@H](CCC(N)=O)NC(=O)[C@H](Cc1ccccc1)NC(=O)[C@H](CC(C)C)NC(=O)OCc1ccccc1 [Compound 82]
## Output 7,300 M-1 sec-1

## Input Recombinant Rhinovirus 3C protease (RVP) serotype-14 (Human rhinovirus 14, UniProt P03303) / kobs/I / CC(C)C[C@H](NC(=O)OCc1ccccc1)C(=O)N[C@@H](Cc1ccccc1)C(=O)N[C@H](/C=C/c1ccccn1)CCC(N)=O [Compound 23] : value?
## Output 120 M⁻¹ s⁻¹

## Input Param readout = kobs/I; param system = Recombinant Rhinovirus 3C protease (RVP) serotype-14 (Human rhinovirus 14, UniProt P03303); param query = CCOC(=O)/C=C/[C@H](CCC(N)=O)NC(=O)[C@H](Cc1ccccc1)NC(=O)[C@H](CC(C)C)NC(=O)c1ccccc1 [Compound 67] ; response: value
## Output 9,600 M-1 sec-1

## Input Lab note: need kobs/I for CSc1cccc2c1N(C(=O)/C=C/[C@H](CCC(N)=O)NC(=O)[C@H](Cc1ccccc1)NC(=O)[C@H](CC(C)C)NC(=O)OCc1ccccc1)CC2 [Compound 96] on Recombinant Rhinovirus 3C protease (RVP) serotype-14 (Human rhinovirus 14, UniProt P03303), anyone have it?
## Output 300 M⁻¹ s⁻¹

## Input Observed kobs/I on Recombinant Rhinovirus 3C protease (RVP) serotype-14 (Human rhinovirus 14, UniProt P03303) for CCCS(=O)(=O)N[C@@H](Cc1ccccc1)C(=O)N[C@H](/C=C/C(=O)OCC)CCC(N)=O [Compound 31] , please.
## Output 21 M⁻¹ s⁻¹

## Input Which measured kobs/I belongs to CCOC(=O)/C=C/[C@H](CCC(N)=O)NC(=O)[C@H](Cc1ccc(F)cc1)NC(=O)c1cc2c(OC)cccc2[nH]1 [Compound 27] , tested on Recombinant Rhinovirus 3C protease (RVP) serotype-14 (Human rhinovirus 14, UniProt P03303)?
## Output 3,000 M-1 sec-1

## Input Report kobs/I for CC(C)C[C@H](NC(=O)OCc1ccccc1)C(=O)N[C@@H](Cc1ccccc1)C(=O)N[C@H](/C=C/[N+](=O)[O-])CCC(N)=O [Compound 125] tested on Recombinant Rhinovirus 3C protease (RVP) serotype-14 (Human rhinovirus 14, UniProt P03303).
## Output >500,000 M-1 sec-1
